Field: EC50. Provide a value for each of the binders that follow.
biological target: T1, recombinant LILRB1 (human, UniProt Q8NHL6 24-461); assay: ELISA, coated recombinant LILRB1, antibody titration;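 note: serially diluted anti-LILRB1 antibodies incubated 60 min at 37 °C on plates coated with 50 ng/well recombinant protein, TMB colorimetric development read as absorbance at 450 nm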
T1 construct: LILRB1-Fc proteins were also made; also called LILRB1 recombinant proteins
T1 sequence (Q8NHL6 24-461 limits assumed): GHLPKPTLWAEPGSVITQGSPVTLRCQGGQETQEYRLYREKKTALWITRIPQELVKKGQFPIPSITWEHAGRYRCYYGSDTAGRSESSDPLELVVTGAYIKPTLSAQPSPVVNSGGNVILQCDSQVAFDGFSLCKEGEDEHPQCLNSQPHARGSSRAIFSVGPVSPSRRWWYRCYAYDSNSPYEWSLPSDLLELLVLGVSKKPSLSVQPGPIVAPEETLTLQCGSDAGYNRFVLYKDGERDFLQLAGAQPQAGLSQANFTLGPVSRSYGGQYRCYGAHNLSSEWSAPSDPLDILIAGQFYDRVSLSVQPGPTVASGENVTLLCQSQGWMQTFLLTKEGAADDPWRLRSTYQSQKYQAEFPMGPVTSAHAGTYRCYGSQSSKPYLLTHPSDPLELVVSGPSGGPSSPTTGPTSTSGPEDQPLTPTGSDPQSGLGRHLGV
Answers are plain numbers, in mg/L.

Some solved entries appear below for comparison.
binder="B1-#110 (antibody, V domains shown, recombinant rabbit IgG) VH: QSLEESGGDLVKPEGSLTLTCTASGFSFSSSYWICWVRQAPGKGLEWIGCIYAGNSANTYYASWAKGRFTISKTSSTTVTLQLTSLTAADTATYFCASRNGGAPDGLNLWGPGTLVTISS VL: ELDLTQTPASVEAAVGGTVTIKCQASLNINSWLAWYQQKPGQPPKLLISYTSSLASGVPSRFKGSGSGTEYTLTINDLECADAATYYCQTTYFGTNGGGFGGGTEVEIK" assay_readout=EC50 measured_result=0.0178
binder="B1-#3 (antibody, V domains shown, recombinant rabbit IgG) VH: QSLEESEGDLVKPEGSLTLTCKASGFDFSSDAMCWVRQAPGKGLEWIGCIYNGDEITDHASWAKGRFTISKTSPTTVTLQMTSLTVADTATYFCARAVYSDGGAGYPYMYGMDLWGPGTLVTVSS VL: ELDMTQTPASVEAAVGGTVTIKCQASQNIYSYLVWYQQKPGQPPKLLISKASTLASGVSSRFKGSGSGTEFTLTINDLECADAATYYCQTNYFSSTSHFGVFTFGGGTELEIK" assay_readout=EC50 measured_result=0.0119

# ---- query binder ----
Q) Give EC50 for the following binder: B1-#115 (antibody, V domains shown, recombinant rabbit IgG) VH: EQSVKESGGGLVQPEGSLTLTCTASGFSFSSSYWICWVRQAPGKGLEWIGCIATGTGSTYYANWVNGRFTMSKPSSTTVTLQMTTLTAADTATYFCARGGGYWSFSLWGPGTLVTISS VL: ELVMTQTPSSVEAAVGGTVTNKCQASEDIYSNLAWYQQKPGQPPKLLIYGATTLASGVPSRFKGSGSGTEFTLTISDLECADAATYYCQAESNDVWAFGGGTEVVVK
A) 0.052
